Hello, the source for this data is patent US11453711B2, in case you need it.

Assay Notes: Pharmacokinetic measurement in mouse, single sc dose 30 nmol/kg, plasma ELISA
Test Parameters: read-out: Cmax (nmol/L), single sc dose 30 nmol/kg
Measurement Label: Cmax (nmol/L)
Answers are plain numbers, in nmol/L.

Solved cases below.
MLC093: fusion polypeptide SEQ ID NO: 381 conjugated with Moiety B at 33C of Linker (conjugate, Moiety B conjugated at linker Cys33) HGEGTFTSDVSSYLEEQAAKEFIAWLVRGGGGAQPGAQPGAQPGAQPGAQPGAQPGAQPGAQPCQEPGAQPGQEPGAQPGQEPGAQPGQEPGAQPGQEPGAQPGQEPGAQPARQGDHCPLGPGRCCRLHTVRASLEDLGWADWVLSPREVQVTMCIGACPSQFRAANLHAQIKTSLHRLKPDTVPAPCCVPASYNPMVLIQKTDTGVSLQTYDDLLAKDCHCI | 120
MLC004: fusion polypeptide SEQ ID NO: 251 conjugated with Moiety A at 26K of GLP-1 (conjugate, Moiety A conjugated at K26) HGEGTFTSDVSSYLEEQAAKEFIAWLVRGGGGQEPGAQPGQEPGAQPGQEPGAQPGQEPGAQPGQEPGAQPGQEPGAQPGAQPGAQPGAQPGAQPGAQPGAQPGAQPGAQPARQGDHCPLGPGRCCRLHTVRASLEDLGWADWVLSPREVQVTMCIGACPSQFRAANLHAQIKTSLHRLRPDTVPAPCCVPASYNPMVLIQRTDTGVSLQTYDDLLARDCHCI | 15.1
MLC009: fusion polypeptide SEQ ID NO: 256 conjugated with Moiety A at 15K of Linker (conjugate, Moiety A conjugated at linker K15) HGEGTFTSDVSSYLEEQAAREFIAWLVRGGGGQEPGQEPGQEPGQKPGQEPGQEPGQEPGQEPGAQPGAQPARQGDHCPLGPGRCCRLHTVRASLEDLGWADWVLSPREVQVTMCIGACPSQFRAANLHAQIKTSLHRLRPDTVPAPCCVPASYNPMVLIQRTDTGVSLQTYDDLLARDCHCI | 17
MLC007: fusion polypeptide SEQ ID NO: 254 conjugated with Moiety A at 1K of Linker (conjugate, Moiety A conjugated at linker K1) HGEGTFTSDVSSYLEEQAAREFIAWLVRGGGKQEPGQEPGQEPGQEPGQEPGQEPGQEPGQEPGAQPGAQPARQGDHCPLGPGRCCRLHTVRASLEDLGWADWVLSPREVQVTMCIGACPSQFRAANLHAQIKTSLHRLRPDTVPAPCCVPASYNPMVLIQRTDTGVSLQTYDDLLARDCHCI | 10.4
MLC002: fusion polypeptide SEQ ID NO: 249 conjugated with Moiety A at 26K of GLP-1 (conjugate, Moiety A conjugated at K26) HGEGTFTSDVSSYLEEQAAKEFIAWLVRGGGGQEPGQEPGQEPGQEPGQEPGQEPGQEPGQEPGAQPGAQPARQGDHCPLGPGRCCRLHTVRASLEDLGWADWVLSPREVQVTMCIGACPSQFRAANLHAQIKTSLHRLRPDTVPAPCCVPASYNPMVLIQRTDTGVSLQTYDDLLARDCHCI | 4.6

Each of the following entries comes with a recorded value; kindly state Cmax for each.
1. MLC019: unconjugated GLP-1/GDF15 fusion protein, linker of at least 80 residues (protein) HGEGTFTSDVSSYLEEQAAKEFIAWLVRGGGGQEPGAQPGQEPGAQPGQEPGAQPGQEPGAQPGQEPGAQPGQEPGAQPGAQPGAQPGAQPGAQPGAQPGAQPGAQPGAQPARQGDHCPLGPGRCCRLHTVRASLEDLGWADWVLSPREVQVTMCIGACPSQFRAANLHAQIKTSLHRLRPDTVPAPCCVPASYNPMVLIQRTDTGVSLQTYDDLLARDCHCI
2. MLC017: fusion polypeptide SEQ ID NO: 264 conjugated with Moiety A at 55K of Linker (conjugate, Moiety A conjugated at linker K55) HGEGTFTSDVSSYLEEQAAREFIAWLVRGGGGQEPGAQPGQEPGAQPGQEPGAQPGQEPGAQPGQEPGAQPGQEPGAQPGAQPGAKPGAQPGAQPGAQPGAQPGAQPGAQPARQGDHCPLGPGRCCRLHTVRASLEDLGWADWVLSPREVQVTMCIGACPSQFRAANLHAQIKTSLHRLRPDTVPAPCCVPASYNPMVLIQRTDTGVSLQTYDDLLARDCHCI
3. MLC008: fusion polypeptide SEQ ID NO: 255 conjugated with Moiety A at 6K of Linker (conjugate, Moiety A conjugated at linker K6) HGEGTFTSDVSSYLEEQAAREFIAWLVRGGGGQEPGKEPGQEPGQEPGQEPGQEPGQEPGQEPGAQPGAQPARQGDHCPLGPGRCCRLHTVRASLEDLGWADWVLSPREVQVTMCIGACPSQFRAANLHAQIKTSLHRLRPDTVPAPCCVPASYNPMVLIQRTDTGVSLQTYDDLLARDCHCI

Output:
1: 23.7; 2: 29.4; 3: 20.8
